Test: Pharmacokinetics in Cynomolgus monkeys, single subcutaneous or intravenous dose
Type: in vivo
Conditions: both sexes, cynomolgus monkey, plasma, iv, 183 nmol/kg, single intravenous dose 183 nmol/kg, Mean
Experimental: Plasma concentrations of compounds were determined by LC/MS methods. For each assay, the compound and an internal standard (IS), were extracted from 100% mouse, rat, pig, or monkey plasma (70 μL) using Isopropanol-Methanol. Two distinct layers were formed upon centrifugation with the compound and the IS located in the supernatant layer. […] The column effluent was directed into a Thermo Fisher Scientific Orbitrap (Exploris 240) mass spectrometer for detection and quantitation. […]
*1 amine or outer side, *2 acyl side, *3 side chain or, on linkers, in order; H or OH if unused. Side-chain parts run from the residue outwards. [ ]: non-standard residue; d: D form. The star is where a group is joined. C20 diacid = O=C(O)CCCCCCCCCCCCCCCCCCC(=O)*; γGlu = O=C(O)[C@H](CCC(=O)[*:2])N[*:1]; εLys = N[C@@H](CCCCN[*:1])C(=O)[*:2]; pGlu = O=C1CC[C@@H](C(=O)O)N1; αMeL = CC(C)C[C@](C)(N)C(=O)O; AEEA = NCCOCCOCC(=O)O; Aib = CC(C)(N)C(=O)O
Property: clearance (mL/day/kg)
Numbers only, in mL/day/kg.

What value of measured clearance is listed for [pGlu]GSPSGIVTS[αMeL]DVPT[Aib][αMeL]LQKILEQERAEKARQQAK([γGlu-AEEA-εLys-C20 diacid])EAAEILAQV-NH2 [SEQ ID NO: 22] ? 9.89

---

Can you tell me AUC0-inf for the items I'm about to list?
assay: Pharmacokinetics in Yucatan mini-pigs, single subcutaneous or intravenous dose; format: in vivo; conditions: Yucatan mini-pig, minipig, plasma, sc; male Yucatan pigs; single subcutaneous dose 19 nmol/kg; Mean; read-out: AUC0-inf
*1 amine or outer side, *2 acyl side, *3 side chain or, on linkers, in order; H or OH if unused. Side-chain parts run from the residue outwards. [ ]: non-standard residue; d: D form. The star is where a group is joined. C20 diacid = O=C(O)CCCCCCCCCCCCCCCCCCC(=O)*; γGlu = O=C(O)[C@H](CCC(=O)[*:2])N[*:1]; εLys = N[C@@H](CCCCN[*:1])C(=O)[*:2]; αMeL = CC(C)C[C@](C)(N)C(=O)O; AEEA = NCCOCCOCC(=O)O; Aib = CC(C)(N)C(=O)O
Returns: string containing the numeric result and its unit.

Sample records with AUC0-inf:
Ac-GSPSIVTS[αMeL]DVPT[Aib][αMeL]LQKILEQERAEKARQQAK([γGlu-AEEA-εLys-C20 diacid])EAAEILAQV-NH2 [SEQ ID NO: 1] = 17.8 µM·h
Ac-PPPIVTS[αMeL]DVPT[Aib][αMeL]LQKLLEQERAEKARQQAK([γGlu-AEEA-εLys-C20 diacid])EAAEILAQV-NH2 [SEQ ID NO: 48] = 32.5 µM·h
{C20 diacid-εLys-AEEA-γGlu}-GSPSIVTS[αMeL]DVPT[Aib][αMeL]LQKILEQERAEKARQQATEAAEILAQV-NH2 [SEQ ID NO: 25] = 27.6 µM·h

Please give the measured AUC0-inf for this substance: Ac-GSPSIVTS[αMeL]DVPT[Aib][αMeL]LQKLLEQERAEKARQQAK([γGlu-AEEA-εLys-C20 diacid])EAAEILAQV-NH2 [SEQ ID NO: 2] 18.1 µM·h

---

experiment: Pharmacokinetics in Yucatan mini-pigs, single subcutaneous or intravenous dose; type: in vivo; details: male Yucatan pigs; single subcutaneous dose 19 nmol/kg; individual animal
*1 amine or outer side, *2 acyl side, *3 side chain or, on linkers, in order; H or OH if unused. Side-chain parts run from the residue outwards. [ ]: non-standard residue; d: D form. The star is where a group is joined. C20 diacid = O=C(O)CCCCCCCCCCCCCCCCCCC(=O)*; γGlu = O=C(O)[C@H](CCC(=O)[*:2])N[*:1]; εLys = N[C@@H](CCCCN[*:1])C(=O)[*:2]; αMeL = CC(C)C[C@](C)(N)C(=O)O; AEEA = NCCOCCOCC(=O)O; Aib = CC(C)(N)C(=O)O
Exercise: state measured T1/2 for each of the substances provided.
Give bare numbers, in h.

For orientation, consider the following solved cases.
Ac-GSPSIVTS[αMeL]DVPT[Aib][αMeL]LQKLLEQERAEKARQQAK([γGlu-AEEA-εLys-C20 diacid])EAAEILAQV-NH2 [SEQ ID NO: 2] = 90.8
Ac-GSPSIVTS[αMeL]DVPT[Aib][αMeL]LQKILEQERAEKARQQAK([γGlu-AEEA-εLys-C20 diacid])EAAEILAQV-NH2 [SEQ ID NO: 1] = 60.2
{C20 diacid-εLys-AEEA-γGlu}-GSPSIVTS[αMeL]DVPT[Aib][αMeL]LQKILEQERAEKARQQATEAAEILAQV-NH2 [SEQ ID NO: 25] = 70.4

Now for the substance whose T1/2 we want.
Using the record for Ac-PPPIVTS[αMeL]DVPT[Aib][αMeL]LQKLLEQERAEKARQQAK([γGlu-AEEA-εLys-C20 diacid])EAAEILAQV-NH2 [SEQ ID NO: 48] , report its T1/2. 66.8

---

For each entry below, report its half-life value.
experiment: Pharmacokinetics in Sprague Dawley rats, single subcutaneous or intravenous dose (incl. 10, 30, 100 nmol/kg dose response); assay type: in vivo; settings: male, Sprague Dawley, rat, plasma, sc, 100 nmol/kg, dose response, single subcutaneous dose 100 nmol/kg, individual animal
*1 amine or outer side, *2 acyl side, *3 side chain or, on linkers, in order; H or OH if unused. Side-chain parts run from the residue outwards. [ ]: non-standard residue; d: D form. The star is where a group is joined. C20 diacid = O=C(O)CCCCCCCCCCCCCCCCCCC(=O)*; γGlu = O=C(O)[C@H](CCC(=O)[*:2])N[*:1]; εLys = N[C@@H](CCCCN[*:1])C(=O)[*:2]; pGlu = O=C1CC[C@@H](C(=O)O)N1; αMeL = CC(C)C[C@](C)(N)C(=O)O; AEEA = NCCOCCOCC(=O)O; Aib = CC(C)(N)C(=O)O
Numbers only, in h.

As a guide, the following entries are already answered.
[pGlu]GSPSGIVTS[αMeL]DVPT[Aib][αMeL]LQKILEQERAEKARQQAK([γGlu-AEEA-εLys-C20 diacid])EAAEILAQV-NH2 [SEQ ID NO: 22] = 28.6
Ac-GSPSIVTS[αMeL]DVPT[Aib][αMeL]LQKILEQERAEKARQQAK([γGlu-AEEA-εLys-C20 diacid])EAAEILAQV-NH2 [SEQ ID NO: 1] = 30.8

Now for another entry.
Which measured half-life value corresponds to {C20 diacid-εLys-AEEA-γGlu}-GSPSIVTS[αMeL]DVPT[Aib][αMeL]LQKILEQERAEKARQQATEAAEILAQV-NH2 [SEQ ID NO: 25] ? 16

---

assay: Pharmacokinetics in Sprague Dawley rats, single subcutaneous or intravenous dose (incl. 10, 30, 100 nmol/kg dose response); type: in vivo; settings: male, Sprague Dawley, rat, plasma, sc, 190 nmol/kg, single subcutaneous dose 190 nmol/kg, mean
*1 amine or outer side, *2 acyl side, *3 side chain or, on linkers, in order; H or OH if unused. [ ]: non-standard residue; d: D form. The star is where a group is joined. C20 diacid = O=C(O)CCCCCCCCCCCCCCCCCCC(=O)*; γGlu = O=C(O)[C@H](CCC(=O)[*:2])N[*:1]; εLys = N[C@@H](CCCCN[*:1])C(=O)[*:2]; αMeL = CC(C)C[C@](C)(N)C(=O)O; AEEA = NCCOCCOCC(=O)O; Aib = CC(C)(N)C(=O)O
Property: half-life (h)
Answers are plain numbers, in h.

Returns the measured half-life for the input substance. Input: {C20 diacid-εLys-AEEA-γGlu}-GSPSIVTS[αMeL]DVPT[Aib][αMeL]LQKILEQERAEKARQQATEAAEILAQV-NH2 [SEQ ID NO: 25] 14.4
